The reported numbers originate from paper doi:10.1101/2021.05.31.446396.

- target_or_test_system: the molecule itself
- test_summary: SEC
value_type: stoichiometry N
Provide a numeric answer; units are not to be included.

IN: Return the recorded stoichiometry N value; entry: D2 domain of EccCb1 (35-316 residues), T92A mutant (domain or fragment) NPVPLNELIARDRRQPLRFALGIMDEPRRHLQDVWGVDVSGAGGNIGIGGAPQTGKSALLQTMVMSAAATHSPRNVQFYCIDLGGGGLIYLENLPHVGGVANRSEPDKVNRVVAEMQAVMRQRETTFKEHRVGSIGMYRQLRDDPSQPVASDPYGDVFLIIDGWPGFVGEFPDLEGQVQDLAAQGLAFGVHVIISTPRWTELKSRVRDYLGTKIEFRLGDVNETQIDRITREIPANRPGRAVSMEKHHLMIGVPRFDGVHSADNLVEAITAGVTQIASQHTE
OUT: 2
